B1: PTPN9 (parent)
chain: TQHLPRECLPENLGGYVKIDLATW

Variants of: B1
Procedure details: protein stability index of a GFP-peptide fusion (GPS, HEK-293T) (PSI 1-6); higher = more stable;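 further: lentivirally expressed fusions sorted by FACS into six bins by GFP to DsRed ratio, PSI derived from sequencing read proportions per bin multiplied by bin number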
Protocol conditions: c terminus: a fixed tail appended
Parameter: protein stability index

Task: Given Q2N , state its recorded protein stability index.
Output: 2.05

Task: Given Q2P , state its recorded protein stability index.
Output: 2.02

Task: Given Q2T , state its recorded protein stability index.
Output: 1.99

Task: Given E11S , state its recorded protein stability index.
Output: 2.04

Task: Given L21M , state its recorded protein stability index.
Output: 1.88

Task: Given Q2R , state its recorded protein stability index.
Output: 1.76

Task: Given L9P , state its recorded protein stability index.
Output: 2.18
